Organism: Rattus norvegicus
ASSAY OVERVIEW: Open TG-GATES - Regimen: Daily Repeat
Format: toxicity, organism-based, Sprague-Dawley
Design: regimen Daily Repeat, gender Male, age 6 weeks
TEST CONTEXT: in vivo, po, 10 mg/kg, 72 h, tissue Plasma, route gavage, dose level Low, time 3 day
READOUT LABEL: GLC
Write the numeric value and follow it with the unit.

# count of solved cases: 3
>>> reading("CC(C)OC(=O)C(C)(C)Oc1ccc(C(=O)c2ccc(Cl)cc2)cc1 [FENOFIBRATE]")
"182.8 mg/dL"
>>> reading("CC1=C(/C=C/C(C)=C/C=C/C(C)=C/CO)C(C)(C)CCC1")
"191.4 mg/dL"
>>> reading("CN(C)CCCN1c2ccccc2CCc2ccccc21")
"185.4 mg/dL"

Now for the molecule whose GLC we want.
Specify reported GLC for the molecule shown: CN(C)CCN(Cc1cccs1)c1ccccn1
188.2 mg/dL
